Tested on: Nucleic Acid
ASSAY_NOTES: Effect on cellular protein DNA complex formation(%) at 10 uM in comparison with etoposide
Type: functional
RECORDED_METRIC: Complex formation (%)
Numeric answer only, unit % assumed.

These solved cases illustrate the format of a correct answer.
# LINE_NOTATION, READOUT_UNITS, Complex formation
data = [
    ("COc1cc([C@@H]2c3cc4c(cc3[C@@H](Nc3ccc([N+](=O)[O-])cc3)[C@H]3COC(=O)[C@H]23)OCO4)cc(OC)c1O", "%", 323),
    ("COc1cc([C@@H]2c3cc4c(cc3[C@@H](Nc3ccc(Cl)cc3)[C@H]3COC(=O)[C@H]23)OCO4)c(Cl)c(OC)c1O", "%", 0),
    ("COc1cc([C@@H]2c3cc4c(cc3[C@@H](Nc3cccc(O)c3)[C@H]3COC(=O)[C@H]23)OCO4)c(Cl)c(OC)c1O", "%", 0),
]

Continue with the compound presented below.
**Q:** Form field: Complex formation recorded for `COc1cc([C@@H]2c3cc4c(cc3[C@@H](Nc3ccc(F)cc3)[C@H]3COC(=O)[C@H]23)OCO4)cc(OC)c1O` with Nucleic Acid (enter value)
**A:** 213

Value source: ChEMBL document CHEMBL1126321
